System: Enterococcus faecalis
method: Antimicrobial activity against tetracycline-resistant Enterococcus faecalis isolate 159 harboring […] gene by CLSI dilution method
Type: functional
Mark each entry TRUE if its MIC sits below 2 µg/mL, and FALSE for all others.

compound: CN(C)[C@@H]1C(O)=C(C(N)=O)C(=O)[C@@]2(O)C(O)=C3C(=O)c4c(cc5ccc(-c6ccccc6)cc5c4O)C[C@H]3C[C@@H]12
label: TRUE

Read the next record carefully.
Inquiry: Say whether its MIC is strictly beneath 2 µg/mL. Entry: CC(C)CNCc1ccc2cc3c(c(O)c2c1)C(=O)C1=C(O)[C@]2(O)C(=O)C(C(N)=O)=C(O)[C@@H](N(C)C)[C@@H]2C[C@@H]1C3
Reply text: FALSE

---

method: Cmax in Sprague-Dawley rat at 1 mg/kg, iv administered as single dose measured after 24 to 48 hrs
Assay type: ADME, organism-based
Design: dose 1 mg/kg, route intravenous
run-conditions: in vivo
property-label: Cmax (ng/mL)
Could you give me the number in ng/mL? Just the number is fine.

These solved cases illustrate the format of a correct answer.
smiles-representation: CN(C)[C@@H]1C(O)=C(C(N)=O)C(=O)[C@@]2(O)C(O)=C3C(=O)c4c(c(F)c5ccc(CN6CC(F)C6)cc5c4O)C[C@H]3C[C@@H]12
Cmax [ng/mL]: 358
//
smiles-representation: COc1c2c(c(O)c3cc(CN4CCC4)ccc13)C(=O)C1=C(O)[C@]3(O)C(=O)C(C(N)=O)=C(O)[C@@H](N(C)C)[C@@H]3C[C@@H]1C2
Cmax [ng/mL]: 618

Inquiry: Tell me its Cmax given COc1c2c(c(O)c3cc(CNCC(C)C)ccc13)C(=O)C1=C(O)[C@]3(O)C(=O)C(C(N)=O)=C(O)[C@@H](N(C)C)[C@@H]3C[C@@H]1C2 as the entry.
Reply text: 414

Inquiry: Give the reported Cmax for this molecule. CC(C)CNCc1ccc2cc3c(c(O)c2c1)C(=O)C1=C(O)[C@]2(O)C(=O)C(C(N)=O)=C(O)[C@@H](N(C)C)[C@@H]2C[C@@H]1C3
Reply text: 891

Inquiry: Return Cmax for the following molecule: CN(C)[C@@H]1C(O)=C(C(N)=O)C(=O)[C@@]2(O)C(O)=C3C(=O)c4c(cc5ccc(CN6CC(F)C6)cc5c4O)C[C@H]3C[C@@H]12
Reply text: 814

Inquiry: Give the measured Cmax for CN(C)[C@@H]1C(O)=C(C(N)=O)C(=O)[C@@]2(O)C(O)=C3C(=O)c4c(c(F)c5ccc(CN6CCC6)cc5c4O)C[C@H]3C[C@@H]12
Reply text: 73

---

method: Clearance in Sprague-Dawley rat at 1 mg/kg, iv administered as single dose measured after 24 to 48 hrs
Assay type: ADME, organism-based
Set-up: dose 1 mg/kg, route intravenous
run-conditions: in vivo
Class (required): determined from clearance; valid ranges are low = under 10 mL/min/kg, middle = from 10 mL/min/kg up to 20 mL/min/kg, high = 20 mL/min/kg and over

Use the examples below as a reference point.
smiles-representation: CN(C)[C@@H]1C(O)=C(C(N)=O)C(=O)[C@@]2(O)C(O)=C3C(=O)c4c(c(F)c5ccc(CN6CCC6)cc5c4O)C[C@H]3C[C@@H]12
label: high
//
smiles-representation: CN(C)[C@@H]1C(O)=C(C(N)=O)C(=O)[C@@]2(O)C(O)=C3C(=O)c4c(c(F)c5ccc(CN6CC(F)C6)cc5c4O)C[C@H]3C[C@@H]12
label: middle
//
smiles-representation: COCCNCc1ccc2cc3c(c(O)c2c1)C(=O)C1=C(O)[C@]2(O)C(=O)C(C(N)=O)=C(O)[C@@H](N(C)C)[C@@H]2C[C@@H]1C3
label: low
//
smiles-representation: COc1c2c(c(O)c3cc(CNC4CC4)ccc13)C(=O)C1=C(O)[C@]3(O)C(=O)C(C(N)=O)=C(O)[C@@H](N(C)C)[C@@H]3C[C@@H]1C2
label: high

Inquiry: Note: place this compound into its band. Item: COc1c2c(c(O)c3cc(CN4CC(F)C4)ccc13)C(=O)C1=C(O)[C@]3(O)C(=O)C(C(N)=O)=C(O)[C@@H](N(C)C)[C@@H]3C[C@@H]1C2
Reply text: high

Inquiry: Hello team, could you let me know which band the following compound falls into: CN(C)[C@@H]1C(O)=C(C(N)=O)C(=O)[C@@]2(O)C(O)=C3C(=O)c4c(c(F)c5ccc(CNC(C)(C)C)cc5c4O)C[C@H]3C[C@@H]12
Reply text: middle

Inquiry: Any idea which band CN(C)[C@@H]1C(O)=C(C(N)=O)C(=O)[C@@]2(O)C(O)=C3C(=O)c4c(cc5ccc(CN6CC(F)C6)cc5c4O)C[C@H]3C[C@@H]12 is in?
Reply text: low

Inquiry: Form: Item = CC(C)CNCc1ccc2cc3c(c(O)c2c1)C(=O)C1=C(O)[C@]2(O)C(=O)C(C(N)=O)=C(O)[C@@H](N(C)C)[C@@H]2C[C@@H]1C3 ; Class = ?
Reply text: low

---

Test system: Enterobacter cloacae
method: Antimicrobial activity against tetracycline-susceptible Enterobacter cloacae isolate 108 by CLSI dilution method
Assay type: functional
Consider the following molecules and their measured MIC readings.

For orientation, consider the following solved cases.
smiles-representation: CN(C)[C@@H]1C(O)=C(C(N)=O)C(=O)[C@@]2(O)C(O)=C3C(=O)c4c(c(F)c5ccc(CNC6CC6)cc5c4O)C[C@H]3C[C@@H]12
assayed-system: Enterobacter cloacae
property-label: MIC
result: 4 µg/mL
--
smiles-representation: COc1c2c(c(O)c3cc(CNCC(C)C)ccc13)C(=O)C1=C(O)[C@]3(O)C(=O)C(C(N)=O)=C(O)[C@@H](N(C)C)[C@@H]3C[C@@H]1C2
assayed-system: Enterobacter cloacae
property-label: MIC
result: 2 µg/mL
--
smiles-representation: COCCNCc1ccc2c(N(C)C)c3c(c(O)c2c1)C(=O)C1=C(O)[C@]2(O)C(=O)C(C(N)=O)=C(O)[C@@H](N(C)C)[C@@H]2C[C@@H]1C3
assayed-system: Enterobacter cloacae
property-label: MIC
result: 16 µg/mL
--
smiles-representation: CCCN(CCC)c1c2c(c(O)c3cc(CN4CCC4)ccc13)C(=O)C1=C(O)[C@]3(O)C(=O)C(C(N)=O)=C(O)[C@@H](N(C)C)[C@@H]3C[C@@H]1C2
assayed-system: Enterobacter cloacae
property-label: MIC
result: > 32 µg/mL

Proceeding to the next molecule to report its MIC.
Inquiry: Give the reported MIC for this molecule. CCNCc1ccc2c(F)c3c(c(O)c2c1)C(=O)C1=C(O)[C@]2(O)C(=O)C(C(N)=O)=C(O)[C@@H](N(C)C)[C@@H]2C[C@@H]1C3
Reply text: 2 µg/mL

---

System: Klebsiella pneumoniae
method: Antimicrobial activity against tetracycline-resistant Klebsiella pneumoniae isolate 153 harboring tetA gene by CLSI dilution method
Format: functional
property-label: MIC (µg/mL)
Give just the numeric value; µg/mL need not be written.

Completed entries (count: 3):
smiles-representation: CN(C)[C@@H]1C(O)=C(C(N)=O)C(=O)[C@@]2(O)C(O)=C3C(=O)c4c(cc5ccc(CN6CC(O)C6)cc5c4O)C[C@H]3C[C@@H]12
MIC (µg/mL): 8

smiles-representation: CN(C)[C@@H]1C(O)=C(C(N)=O)C(=O)[C@@]2(O)C(O)=C3C(=O)c4c(cc5ccc(CN6CC(F)C6)cc5c4O)C[C@H]3C[C@@H]12
MIC (µg/mL): 16

smiles-representation: CCN(C)Cc1ccc2cc3c(c(O)c2c1)C(=O)C1=C(O)[C@]2(O)C(=O)C(C(N)=O)=C(O)[C@@H](N(C)C)[C@@H]2C[C@@H]1C3
MIC (µg/mL): 32

Inquiry: Report MIC for CC(C)Oc1c2c(c(O)c3cc(CN4CCC4)ccc13)C(=O)C1=C(O)[C@]3(O)C(=O)C(C(N)=O)=C(O)[C@@H](N(C)C)[C@@H]3C[C@@H]1C2
Reply text: 32

Inquiry: Provide one value: measured MIC of CN(C)[C@@H]1C(O)=C(C(N)=O)C(=O)[C@@]2(O)C(O)=C3C(=O)c4c(c(F)c5ccc(CN6CCC6)cc5c4O)C[C@H]3C[C@@H]12
Reply text: 4

Inquiry: Assign MIC to the following record: COc1c2c(c(O)c3cc(CNCC(C)C)ccc13)C(=O)C1=C(O)[C@]3(O)C(=O)C(C(N)=O)=C(O)[C@@H](N(C)C)[C@@H]3C[C@@H]1C2
Reply text: 8

Inquiry: Provide one value: measured MIC of CN(C)[C@@H]1C(O)=C(C(N)=O)C(=O)[C@@]2(O)C(O)=C3C(=O)c4c(cc5ccc(CN6CCCCC6)cc5c4O)C[C@H]3C[C@@H]12
Reply text: 8

Inquiry: Report MIC, nothing else, for this molecule: COc1c2c(c(O)c3cc(CNC(C)(C)C)ccc13)C(=O)C1=C(O)[C@]3(O)C(=O)C(C(N)=O)=C(O)[C@@H](N(C)C)[C@@H]3C[C@@H]1C2
Reply text: 8

Inquiry: Complete the entry with MIC for CN(C)c1cc(NC(=O)CNC(C)(C)C)c(O)c2c1C[C@H]1C[C@H]3[C@H](N(C)C)C(O)=C(C(N)=O)C(=O)[C@@]3(O)C(O)=C1C2=O
Reply text: 1

Recorded values, source ChEMBL document CHEMBL1781932.
